Where do the numbers come from? From patent US20130296344A1.

# Tested on: Wnt pathway (Wnt1/Frzd8)
# ASSAY_COMMENT: Wnt signaling pathway reporter gene assay (6xTCF-luciferase, Wnt1/Frizzled 8/LRP6 stimulated Hek293T cells)
# Assay type: cell-based, mouse (Wnt1, human (LRP6)
# CONDITION_SUMMARY: Homo sapiens, HEK-293T, 24 h, Hek293T, 6xTCF-luciferase reporter, 24 h incubation, 5 nM-100 microM; read-out: Wnt1/Frzd8 IC50 (Wnt pathway inhibitory activity)
pIC50: −log10 of the molar value.
READOUT_TYPE: pIC50

# count of solved cases: 2
C=CCOc1c(Br)cc(C2C(C(=O)OCC)=C(N)Oc3c2ccc2ccccc32)cc1OC (centres unmarked) [(4)]	7.07
CCOC(=O)C1=C(N)Oc2cc3c(cc2C1c1cc(F)c(F)c(F)c1)OCO3 (centres unmarked) [(40)]	5.47

I: COc1cc(C2C(C#N)=C(N(C)C)Oc3cc4ccccc4cc32)cc(Br)c1OC (centres unmarked) [(31)]
II: CCOC(=O)C1=C(N)Oc2c(ccc3ccccc23)C1c1cc(Br)c(OC)c(OC)c1 (centres unmarked) [(6)]
III: C=CCOc1c(Br)cc(C2C(C(=O)OCC)=C(N)Oc3cc4c(cc32)OCO4)cc1OC (centres unmarked) [(42)]
Put the items in order so that reported pIC50 rises from first to last. State the ranking by listing the labels in the requested order.
I, II, III
(I: 5.71, II: 6.07, III: 7.26)
